Hey, just so you know, these numbers are from the supplement of paper PMC10567573.

B1: SLC35F2 (parent)
chain: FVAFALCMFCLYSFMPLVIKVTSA

variants of: B1; test: protein stability index of a GFP-peptide fusion (GPS, HEK-293T) (PSI 1-6); higher = more stable; conditions: c terminus: a fixed tail appended;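 also: lentivirally expressed fusions sorted by FACS into six bins by GFP to DsRed ratio, PSI derived from sequencing read proportions per bin multiplied by bin number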
observed property: protein stability index
Please reply with the value in numeric form only.

Some variants with recorded protein stability index:
item sequence	protein stability index
FVAFALCMFCLYSFMPLVIDVTSA [K20D]	2.22
FVAFALCMFCLYSFMPLQIKVTSA [V18Q]	4.26
FVEFALCMFCLYSFMPLVIKVTSA [A3E]	2.62

// sample FVAFALCMFCLYSFMPLVINVTSA [K20N] , its protein stability index was 3.16

// sample FVAFALQMFCLYSFMPLVIKVTSA [C7Q] , its protein stability index was 3.11

// sample FVALALCMFCLYSFMPLVIKVTSA [F4L] , its protein stability index was 4.33

// sample FVAFMLCMFCLYSFMPLVIKVTSA [A5M] , its protein stability index was 2.38

// sample FVAFALCMFCLQSFMPLVIKVTSA [Y12Q] , its protein stability index was 3.48

// sample FVAFALCMFCLYSFGPLVIKVTSA [M15G] , its protein stability index was 2.42
